For reference, Ki measured on human Adenosine A2a receptor (Homo sapiens (Human), UniProt P29274):
EXPERIMENTAL_ENDPOINT: Ki

entry_smiles=Cc1cc(-c2c(-c3cccc(C#N)c3)nc3ccc(C(=O)NCC(C)(C)O)nn23)cc(C)n1 target_desc="human Adenosine A2a receptor (Homo sapiens (Human), UniProt P29274)" test_value="790 pM"
entry_smiles=CC(C)(O)CNC(=O)c1ccc2nc(-c3cccc(C#N)c3)c(Br)n2n1 target_desc="human Adenosine A2a receptor (Homo sapiens (Human), UniProt P29274)" test_value="10900 pM"
entry_smiles=Cc1cc(-c2c(-c3cccc(C#N)c3)nc3ccc(C(=O)NCC(C)(C)O)nn23)cc(C(F)(F)F)n1 target_desc="human Adenosine A2a receptor (Homo sapiens (Human), UniProt P29274)" test_value="460 pM"
entry_smiles=Cc1cc(-c2c(-c3cccc(C#N)c3)nc3ccc(C(=O)N[C@@H](C)C(C)(C)O)nn23)cc(CO)n1 target_desc="human Adenosine A2a receptor (Homo sapiens (Human), UniProt P29274)" test_value="680 pM"
entry_smiles=COc1cc(-c2c(-c3cccc(C#N)c3)nc3ccc(C(=O)N[C@@H](C)C(C)(C)O)nn23)cc(C)n1 target_desc="human Adenosine A2a receptor (Homo sapiens (Human), UniProt P29274)" test_value="190 pM"
entry_smiles=Cc1cc(-c2c(-c3cccc(C#N)c3)nc3ccc(C(=O)N[C@@H](C)C(C)(C)O)nn23)cc(C(F)F)n1 target_desc="human Adenosine A2a receptor (Homo sapiens (Human), UniProt P29274)" test_value="320 pM"
entry_smiles=CC(=O)c1cc(-c2c(-c3cccc(C#N)c3)nc3ccc(C(=O)NCC(C)(C)O)nn23)cc(C)n1 target_desc="human Adenosine A2a receptor (Homo sapiens (Human), UniProt P29274)" test_value="3900 pM"
entry_smiles=COc1cc(-c2c(-c3cccc(C#N)c3)nc3ccc(C(=O)NCC(C)(C)O)nn23)cc(C)n1 target_desc="human Adenosine A2a receptor (Homo sapiens (Human), UniProt P29274)" test_value="2300 pM"

Numbers sourced from patent US20240083904A1.
